test: Brain and plasma exposure in rats after oral dosing (DMPK analysis); assay type: in vivo; conditions: male, Sprague Dawley, rat, 30 mg/kg p.o., 3 hours post dose, brain, read-out: Exp, brain
Could you please mark 1 (yes) for values of concentration at 3 h below 1000 ng/g and 0 (no) for values at or above it?

>>> class("Cc1cc(C#N)cnc1C(=O)Nc1ccc(F)c([C@@]2(C)N=C(N)[C@@](C)(F)CC2(F)F)c1")
"0 (no)"
>>> class("C[C@@]1(F)CC(F)(F)[C@@](C)(c2cc(NC(=O)c3cnc(C(F)F)cn3)ccc2F)N=C1N")
"1 (yes)"
>>> class("COc1cnc(C(=O)Nc2ccc(F)c([C@@]3(C)N=C(N)[C@@](C)(F)CC3(F)F)c2)cn1")
"1 (yes)"
>>> class("COc1ccc(C(=O)Nc2ccc(F)c([C@@]3(C)N=C(N)[C@@](C)(F)CC3(F)F)c2)nc1")
"0 (no)"
>>> class("C[C@]1(F)CC(F)(F)[C@@](C)(c2cc(NC(=O)c3ccc(F)cn3)ccc2F)N=C1N")
"0 (no)"

---

Measured concentration at 3 h of individual entries
Test: Brain and plasma exposure in rats after oral dosing (DMPK analysis)
Format: in vivo
Conditions: male, Sprague Dawley, rat, 30 mg/kg p.o., 3 hours post dose, plasma, read-out: Exp, plasma
Procedure: Young adult Male Sprague Dawley rats of approximately 250 g weight were purchased from Charles River and received 0-30 mg/kg of vehicle (10% HP betaCD+1M MeSO4, pH 2.5) or test compounds (dissolved in vehicle) only by oral gavage (p.o). […] Compounds 1, 5, 17, 18, and 24 were administered at doses of 10 or 30 mg/kg p.o. and brain and plasma samples were collected at 3 hours post dose and the following exposures and reductions in Aβ40 levels were measured as described above.
reported.property: concentration at 3 h

>>> reported_measurement("Cc1cc(C#N)cnc1C(=O)Nc1ccc(F)c([C@@]2(C)N=C(N)[C@@](C)(F)CC2(F)F)c1")
"3000 ng/g"
>>> reported_measurement("COc1cnc(C(=O)Nc2ccc(F)c([C@@]3(C)N=C(N)[C@@](C)(F)CC3(F)F)c2)cn1")
"632 ng/g"
>>> reported_measurement("COc1ccc(C(=O)Nc2ccc(F)c([C@@]3(C)N=C(N)[C@@](C)(F)CC3(F)F)c2)nc1")
"828 ng/g"
>>> reported_measurement("C[C@@]1(F)CC(F)(F)[C@@](C)(c2cc(NC(=O)c3cnc(C(F)F)cn3)ccc2F)N=C1N")
"673 ng/g"
>>> reported_measurement("C[C@]1(F)CC(F)(F)[C@@](C)(c2cc(NC(=O)c3ccc(F)cn3)ccc2F)N=C1N")
"3540 ng/g"

---

biological target: UniProt:P56817; assay: BACE1 efficacy assay (FRET-based, commercial BACE1 kit); assay type: biochemical; conditions: test compound 10 μM, 3 nM enzyme, 250 nM substrate
reported.property: inhibition at 10 µM (%)

>>> reported_measurement("C[C@@]1(F)CC(F)(F)[C@@](C)(c2cc(NC(=O)c3ccn(C(F)F)n3)ccc2F)N=C1N")
102
>>> reported_measurement("Cc1nc(C(=O)Nc2ccc(F)c([C@@]3(C)N=C(N)[C@](C)(F)CC3(F)F)c2)no1")
100
>>> reported_measurement("[2H]C([2H])([2H])Oc1ccc(C(=O)Nc2ccc(F)c([C@@]3(C)N=C(N)[C@](C)(F)CC3(F)F)c2)nc1")
94
>>> reported_measurement("COc1ccc(C(=O)Nc2ccc(F)c([C@@]3(C)N=C(N)[C@@](C)(F)CC3(F)F)c2)nc1")
101
>>> reported_measurement("Cc1nnc(C(=O)Nc2ccc(F)c([C@@]3(C)N=C(N)[C@@](C)(F)CC3(F)F)c2)o1")
88

---

Measured inhibition at 10 µM of individual entries
target: BACE1 enzyme (Homo sapiens (Human), UniProt P56817); assay: BACE1 efficacy assay (FRET-based, commercial BACE1 kit); type: biochemical; details: test compound 10 μM, 3 nM enzyme, 250 nM substrate
Sequence (P56817 46-501): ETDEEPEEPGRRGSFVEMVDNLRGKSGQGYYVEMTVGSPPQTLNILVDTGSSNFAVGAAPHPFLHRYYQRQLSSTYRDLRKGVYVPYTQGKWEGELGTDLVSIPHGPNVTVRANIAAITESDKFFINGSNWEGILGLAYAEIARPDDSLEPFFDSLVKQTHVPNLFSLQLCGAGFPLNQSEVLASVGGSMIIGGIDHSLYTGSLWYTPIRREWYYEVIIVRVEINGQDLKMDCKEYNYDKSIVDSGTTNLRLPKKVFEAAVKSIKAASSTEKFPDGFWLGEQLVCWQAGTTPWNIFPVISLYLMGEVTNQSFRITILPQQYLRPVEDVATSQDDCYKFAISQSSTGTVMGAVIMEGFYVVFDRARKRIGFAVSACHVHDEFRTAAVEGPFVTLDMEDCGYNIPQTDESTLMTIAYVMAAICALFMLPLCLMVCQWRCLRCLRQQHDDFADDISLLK
reported.property: inhibition at 10 µM (%)

>>> reported_measurement("COc1cnc(C(=O)Nc2ccc(F)c([C@@]3(C)N=C(N)[C@@](C)(F)CC3(F)F)c2)nc1 [Compound 12]")
104
>>> reported_measurement("C[C@@]1(F)CC(F)(F)[C@@](C)(c2cc(NC(=O)c3coc(C(F)F)n3)ccc2F)N=C1N [Compound 29]")
101
>>> reported_measurement("Cc1nc(C(=O)Nc2ccc(F)c([C@@]3(C)N=C(N)[C@@](C)(F)CC3(F)F)c2)co1 [Compound 7]")
100
>>> reported_measurement("C[C@]1(F)CC(F)(F)[C@@](C)(c2cc(NC(=O)c3nccs3)ccc2F)N=C1N [Compound 8]")
104
>>> reported_measurement("Cc1csc(C(=O)Nc2ccc(F)c([C@@]3(C)N=C(N)[C@@](C)(F)CC3(F)F)c2)n1 [Compound 10]")
102
>>> reported_measurement("C[C@@]1(F)CC(F)(F)[C@@](C)(c2cc(NC(=O)c3ccc(Cl)cn3)ccc2F)N=C1N [Compound 33]")
103
>>> reported_measurement("Cc1nc(C(=O)Nc2ccc(F)c([C@@]3(C)N=C(N)[C@@](C)(F)CC3(F)F)c2)c(C)o1 [Compound 47]")
102

---

target: BACE1 enzyme (Homo sapiens (Human)); experiment: BACE1 efficacy assay (FRET-based, commercial BACE1 kit); type: biochemical; conditions: test compound 10 μM, 3 nM enzyme, 250 nM substrate
reported.property: inhibition at 10 µM (%)

>>> reported_measurement("Cc1cc(F)cnc1C(=O)Nc1ccc(F)c([C@@]2(C)N=C(N)[C@@](C)(F)CC2(F)F)c1 [Compound 49]")
98
>>> reported_measurement("[2H]C([2H])([2H])Oc1ccc(C(=O)Nc2ccc(F)c([C@@]3(C)N=C(N)[C@@](C)(F)CC3(F)F)c2)nc1 [Compound 48]")
99
>>> reported_measurement("C[C@@]1(F)CC(F)(F)[C@@](C)(c2cc(NC(=O)c3nccs3)ccc2F)N=C1N [Compound 36]")
100
>>> reported_measurement("C[C@@]1(F)CC(F)(F)[C@@](C)(c2cc(NC(=O)c3cnc(C(F)F)cn3)ccc2F)N=C1N [Compound 24]")
98
>>> reported_measurement("C[C@]1(F)CC(F)(F)[C@@](C)(c2cc(NC(=O)c3ccc(C#N)cn3)ccc2F)N=C1N [Compound 4]")
99
>>> reported_measurement("C[C@]1(F)CC(F)(F)[C@@](C)(c2cc(NC(=O)c3ccn(C(F)F)n3)ccc2F)N=C1N [Compound 6]")
100
>>> reported_measurement("C[C@@]1(F)CC(F)(F)[C@@](C)(c2cc(NC(=O)c3nc(CF)co3)ccc2F)N=C1N [Compound 30]")
103
>>> reported_measurement("Cn1cc(Br)nc1C(=O)Nc1ccc(F)c([C@@]2(C)N=C(N)[C@@](C)(F)CC2(F)F)c1 [Compound 9]")
103
>>> reported_measurement("C[C@]1(F)CC(F)(F)[C@@](C)(c2cc(NC(=O)c3cnc(C(F)F)cn3)ccc2F)N=C1N [Compound 16]")
105
>>> reported_measurement("C[C@@]1(F)CC(F)(F)[C@@](C)(c2cc(NC(=O)c3ccc(Cl)cc3)ccc2F)N=C1N [Compound 44]")
92
>>> reported_measurement("C[C@@]1(F)CC(F)(F)[C@@](C)(c2cc(NC(=O)c3nc(CF)cs3)ccc2F)N=C1N [Compound 31]")
102
>>> reported_measurement("COc1cnc(C(=O)Nc2ccc(F)c([C@@]3(C)N=C(N)[C@](C)(F)CC3(F)F)c2)nc1 [Compound 26]")
102
>>> reported_measurement("COc1cnc(C(=O)Nc2ccc(F)c([C@@]3(C)N=C(N)[C@@](C)(F)CC3(F)F)c2)c(C)n1 [Compound 19]")
98
>>> reported_measurement("COc1cnc(C(=O)Nc2ccc(F)c([C@@]3(C)N=C(N)[C@](C)(F)CC3(F)F)c2)cn1 [Compound 25]")
102
>>> reported_measurement("C[C@]1(F)CC(F)(F)[C@@](C)(c2cc(NC(=O)c3ccc(OC(F)F)cn3)ccc2F)N=C1N [Compound 45]")
103

---

experiment: Brain and plasma exposure in rats after oral dosing (DMPK analysis); assay type: in vivo; conditions: male, Sprague Dawley, rat, 10 mg/kg p.o., 3 hours post dose, brain, read-out: Exp, brain
reported.property: concentration at 3 h (ng/g)

>>> reported_measurement("C[C@@]1(F)CC(F)(F)[C@@](C)(c2cc(NC(=O)c3cnc(C(F)F)cn3)ccc2F)N=C1N")
134
>>> reported_measurement("Cc1cc(C#N)cnc1C(=O)Nc1ccc(F)c([C@@]2(C)N=C(N)[C@@](C)(F)CC2(F)F)c1")
412
>>> reported_measurement("COc1cnc(C(=O)Nc2ccc(F)c([C@@]3(C)N=C(N)[C@@](C)(F)CC3(F)F)c2)cn1")
174

Data origin, for the record: patent US10004738B2
